So I've got a bunch of molecules here, and I need their residual activity values.
biological target: CSNK1D (human) (UniProt P48730); test: radiometric filter-binding kinase assay; conditions: compound 0.01 µM
Sequence (P48730 whole entry, looked up): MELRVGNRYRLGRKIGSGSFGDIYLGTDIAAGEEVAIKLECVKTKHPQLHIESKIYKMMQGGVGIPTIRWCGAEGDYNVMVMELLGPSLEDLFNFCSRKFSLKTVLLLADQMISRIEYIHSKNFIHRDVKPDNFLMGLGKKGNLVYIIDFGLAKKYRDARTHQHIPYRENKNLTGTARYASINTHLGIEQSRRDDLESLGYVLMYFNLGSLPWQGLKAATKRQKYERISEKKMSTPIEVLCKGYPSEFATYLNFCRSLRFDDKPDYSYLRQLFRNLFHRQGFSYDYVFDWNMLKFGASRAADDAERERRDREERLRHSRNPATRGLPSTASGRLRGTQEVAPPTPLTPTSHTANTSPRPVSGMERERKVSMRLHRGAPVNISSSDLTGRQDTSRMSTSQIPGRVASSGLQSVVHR
Numbers only, in %.

Past entries and their recorded results:
MOLECULE	MEASURE	OUTPUT UNIT	MEASURED
O=C(Nc1nc2cc(C(F)(F)F)cc(NC3CC3)n2n1)c1cccnc1	residual activity	%	92
COc1cc(O)c2c(c1)[C@H]1OC1C[C@H](O)[C@H](O)C(=O)/C=C\C[C@H](C)OC2=O (stereo partly specified)	residual activity	%	116
CNc1nc(-c2ccc3c(N)n[nH]c3c2)cc(N2C[C@@H](C(=O)NC3CCCCC3)CC[C@H]2C)n1	residual activity	%	100
CNC(=O)C1[C@H]2O[C@@](C)([C@@H]1N)n1c3ccccc3c3c4c(c5c6ccccc6n2c5c31)C(=O)NC4 (stereo partly specified)	residual activity	%	109
COc1ccc(N(C(=O)Nc2c(C)cccc2C)c2cc(Nc3ccc(N4CCN(C)CC4)cc3)ncn2)c(OC)c1	residual activity	%	89

Consider now this further molecule.
Data request: For the record `C/C(=C1/C(=O)Nc2ccc(NC(N)=O)cc21)c1ccc[nH]1` , what value of residual activity is listed for CSNK1D (human) (UniProt P48730)?
Data returned: 94

---

test system: PAK2 (human), Q13177 [T402E]; test: radiometric filter-binding kinase assay; details: compound 10.0 µM
Sequence (Q13177 whole entry T402E, looked up): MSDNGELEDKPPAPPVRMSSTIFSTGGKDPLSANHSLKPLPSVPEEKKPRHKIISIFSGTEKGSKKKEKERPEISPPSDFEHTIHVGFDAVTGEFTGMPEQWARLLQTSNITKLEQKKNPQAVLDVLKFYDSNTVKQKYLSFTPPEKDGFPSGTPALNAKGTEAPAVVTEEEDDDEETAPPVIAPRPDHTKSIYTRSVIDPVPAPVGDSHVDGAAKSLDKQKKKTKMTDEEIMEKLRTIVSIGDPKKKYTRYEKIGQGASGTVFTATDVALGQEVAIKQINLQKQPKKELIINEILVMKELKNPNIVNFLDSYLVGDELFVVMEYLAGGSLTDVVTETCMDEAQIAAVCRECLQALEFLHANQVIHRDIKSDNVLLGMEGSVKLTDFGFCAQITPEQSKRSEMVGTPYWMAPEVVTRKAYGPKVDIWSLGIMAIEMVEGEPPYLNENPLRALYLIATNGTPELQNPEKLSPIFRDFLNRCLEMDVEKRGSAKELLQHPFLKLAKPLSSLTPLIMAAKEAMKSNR
Field 'label' (enum: Criterion met / Criterion not met). Set to Criterion met when residual activity is strictly under 90%; else Criterion not met.

CCCCCc1ccc(/C=C/[C@H](O)[C@@H](CO)NC)cc1 Criterion not met
Oc1ccc(/C=C/c2cc(O)cc(O)c2)cc1 Criterion met
CC(C)(C#N)c1ccc(N2C(=O)OCc3cnc4ccc(-c5cnc6ccccc6c5)cc4c32)cc1 Criterion not met

Attention now turns to another entry.
Data request: Say whether its residual activity is strictly beneath 90%. Entry: `C=CC(=O)N1CCC[C@@H](n2nc(-c3ccc(Oc4ccccc4)cc3)c3c(N)ncnc32)C1`
Data returned: Criterion met

---

So I've got a bunch of compounds here, and I need their residual activity values.
target: UniProt Q02763; assay: radiometric filter-binding kinase assay; conditions: compound 0.1 µM
Sequence (Q02763 whole entry, looked up): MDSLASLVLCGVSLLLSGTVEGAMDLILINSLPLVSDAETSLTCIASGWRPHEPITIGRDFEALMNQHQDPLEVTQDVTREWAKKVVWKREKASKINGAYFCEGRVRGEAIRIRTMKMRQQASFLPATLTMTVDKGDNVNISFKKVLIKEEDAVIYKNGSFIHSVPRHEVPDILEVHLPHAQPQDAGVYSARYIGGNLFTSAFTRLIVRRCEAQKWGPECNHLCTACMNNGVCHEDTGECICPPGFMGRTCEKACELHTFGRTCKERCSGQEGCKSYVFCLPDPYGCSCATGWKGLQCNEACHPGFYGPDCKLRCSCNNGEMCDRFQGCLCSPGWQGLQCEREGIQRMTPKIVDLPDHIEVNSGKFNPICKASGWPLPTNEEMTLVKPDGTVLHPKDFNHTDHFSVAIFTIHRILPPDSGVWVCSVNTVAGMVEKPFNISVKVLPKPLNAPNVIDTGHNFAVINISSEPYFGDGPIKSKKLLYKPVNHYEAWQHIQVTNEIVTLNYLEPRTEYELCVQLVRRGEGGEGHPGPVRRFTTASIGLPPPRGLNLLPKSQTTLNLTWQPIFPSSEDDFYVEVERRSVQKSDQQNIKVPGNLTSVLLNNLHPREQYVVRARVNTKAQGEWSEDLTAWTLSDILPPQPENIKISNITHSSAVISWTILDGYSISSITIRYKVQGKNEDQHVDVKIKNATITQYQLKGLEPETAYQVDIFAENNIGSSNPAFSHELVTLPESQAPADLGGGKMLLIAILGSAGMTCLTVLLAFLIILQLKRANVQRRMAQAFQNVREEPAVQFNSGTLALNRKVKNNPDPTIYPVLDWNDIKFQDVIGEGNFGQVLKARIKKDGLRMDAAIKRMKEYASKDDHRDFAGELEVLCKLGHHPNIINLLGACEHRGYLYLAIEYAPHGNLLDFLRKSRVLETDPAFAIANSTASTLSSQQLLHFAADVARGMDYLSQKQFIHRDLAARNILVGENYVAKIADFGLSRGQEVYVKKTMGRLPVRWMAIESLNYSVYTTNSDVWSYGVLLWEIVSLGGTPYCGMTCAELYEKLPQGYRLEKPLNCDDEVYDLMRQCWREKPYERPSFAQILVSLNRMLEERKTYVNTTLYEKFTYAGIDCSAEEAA
Give bare numbers, in %.

Past entries and their recorded results:
C=CC(=O)N1CCC[C@@H](n2nc(-c3ccc(Oc4ccccc4)cc3)c3c(N)ncnc32)C1 71
O=C(Nc1nc2cc(C(F)(F)F)cc(NC3CC3)n2n1)c1cccnc1 103
Cc1ccc(-c2ccc3c(ccc4sc5c(c43)NC[C@@H](C)NC5=O)n2)cn1 105
c1ccc2c(-c3cnn4cc(-c5ccc(N6CCNCC6)cc5)cnc34)ccnc2c1 102
CN(C)C/C=C/C(=O)Nc1cccc(C(=O)Nc2ccc(Nc3nccc(-c4cccnc4)n3)cc2)c1 94

Can you give me residual activity for all of these, one by one?
1. CCCCCc1ccc(/C=C/[C@H](O)[C@@H](CO)NC)cc1
2. NC(=O)c1cc(-c2ccnc(NC3CCCCC3)c2)nc(N2CCNCC2)c1
3. O=C(N[C@@H](COc1ccc2[nH]c(=O)[nH]c2c1)c1ccccc1)c1cccn(Cc2ccc(F)c(F)c2)c1=O
4. O=C(NCCCNc1nc(Nc2cccc(CN3CCOCC3)c2)ncc1C1CC1)C1CCC1

Data returned:
1. 141
2. 101
3. 104
4. 95
